Below: molecules with IC50 recorded for Telomerase reverse transcriptase (Homo sapiens, UniProt O14746) in separate published works.
# unit: µM | format: bare number

- MOLECULE: "O=Cc1cccc(C(=O)Sc2cccc(Cl)c2)n1"
  ASSAYED_SYSTEM: "Telomerase reverse transcriptase (Homo sapiens, UniProt O14746)"
  IC50 [µM]: 79
- MOLECULE: "CSc1nc(Nc2ccc3nc(C)cc(N)c3c2)nc(Nc2ccc3nc(C)cc(N)c3c2)n1"
  ASSAYED_SYSTEM: "Telomerase reverse transcriptase (Homo sapiens, UniProt O14746)"
  IC50 [µM]: 0.049
- MOLECULE: "CCN(CC)c1nc(Nc2ccncc2)nc(Nc2ccc3nc(C)cc(C)c3c2)n1"
  ASSAYED_SYSTEM: "Telomerase reverse transcriptase (Homo sapiens, UniProt O14746)"
  IC50 [µM]: 3.4
- MOLECULE: "Cc1c2n(c3ccccc13)CCCn1c-2c(CC(=O)NCCCCCCCCCCCC(=O)O)c2ccccc21"
  ASSAYED_SYSTEM: "Telomerase reverse transcriptase (Homo sapiens, UniProt O14746)"
  IC50 [µM]: 50
- MOLECULE: "O=Cc1cccc(C(=O)Sc2c(Cl)cccc2Cl)n1"
  ASSAYED_SYSTEM: "Telomerase reverse transcriptase (Homo sapiens, UniProt O14746)"
  IC50 [µM]: 79
- MOLECULE: "Cc1cn([C@H]2C[C@H](OP(=O)(O)OC[C@H]3O[C@@H](n4cnc5c(N)ncnc54)C[C@@H]3OP(=O)(O)OC[C@H]3O[C@@H](N4C=NC5C(=O)N=C(N)N=C54)C[C@@H]3OP(=O)(O)OC[C@H]3O[C@@H](N4C=NC5C(=O)N=C(N)N=C54)C[C@@H]3OP(=O)(O)OC[C@H]3O[C@@H](N4C=NC5C(=O)N=C(NC(=O)O)N=C54)C[C@@H]3O)[C@@H](COP(=O)(O)ON)O2)c(=O)[nH]c1=O (some centres not stated)"
  ASSAYED_SYSTEM: "Telomerase reverse transcriptase (Homo sapiens, UniProt O14746)"
  IC50 [µM]: 1.16

Please find the next molecule below.
Can you look up the measured IC50 of "CN(C)c1ccc(Nc2c3ccc(NC(=O)CCN4CCCC4)cc3nc3cc(NC(=O)CCN4CCCC4)ccc23)cc1" for me?
5.4

* * *

Below: compounds with pIC50 recorded for Telomerase reverse transcriptase (Homo sapiens, UniProt O14746) in separate published works.
Scale explanation: pIC50 corresponds to minus log10 of a concentration expressed in moles per litre.

- COMPOUND: "Cc1cc(N)c2cc(NC(=N)NC(=N)Nc3ccc4nc(C)cc(N)c4c3)ccc2n1"
  pIC50: 5.70
- COMPOUND: "C[N+](C)(C)CCC(=O)Nc1ccc(NC(=O)CC[N+](C)(C)C)c2c1C(=O)c1ccccc1C2=O"
  pIC50: 5.15
- COMPOUND: "C[N+](C)(C)CCC(=O)Nc1ccc2c(c1)C(=O)c1cc(NC(=O)CC[N+](C)(C)C)ccc1-2"
  pIC50: 4.73

Can you look up the measured pIC50 of "O=C(Cc1cn(CCn2ccc3cc(Cl)ccc32)c2ccccc12)NCCCCCCCCCCCCOP(=O)(O)OC1CCCCC1" for me?
5.06

* * *

Below: molecules with IC50 recorded for Telomerase reverse transcriptase (Homo sapiens, UniProt O14746) in separate published works.
# unit: µM | format: bare number

- STRUCTURE_SMILES: "C[N+]1(CCC(=O)Nc2ccc3c(c2)C(=O)c2cc(NC(=O)CC[N+]4(C)CCCCC4)ccc2-3)CCCCC1"
  MEASUREMENT: 21

Can you look up the measured IC50 of "C[N+](C)(C)CCC(=O)Nc1cccc2c1C(=O)c1cccc(NC(=O)CC[N+](C)(C)C)c1C2=O" for me?
13.2

Again, but for "C[N+](C)(C)CCOc1ccc2c3c(oc2c1)C(=O)c1ccccc1C3=O"
5.4

Again, but for "CN(C)CCCCn1c2ccc(-c3nc4ccc(N5CCN(CCO)CC5)cc4[nH]3)cc2c2cc(-c3nc4ccc(N5CCN(CCO)CC5)cc4[nH]3)ccc21"
0.3
